Data credit: PubChem BioAssay (EPA / NIEHS)

- Read-out: CYP3A5 (gene 1577)
- MEASUREMENT_PROTOCOL: LTEA_HepaRG_CYP3A5: Life Technologies and Expression Analysis (LTEA) Assay for CYP3A5 using HepaRG (AID 2283493)
- RUN_PARAMETERS: mRNA level, 48 h; actives raise or lower the signal
The source made the active and inactive calls. Rule for the calls: active = hit-call score of the fitted dose curve at least 0.9, where 1 is the maximum; inactive = score below 0.9.
// one of Yes = active, No = inactive, no free text

Use these answered entries as a reference point.
                                   molecule  assigned_label
0  O=C(N[C@@H](c1ccccc1)[C@@H]1CCCCN1)c1cccc(C(F)(F)F)c1Cl             Yes
1                          C/C=C/C=C/C(=O)O              No
2                                 NC1CCCCC1              No
3  CC(=O)S[C@H](C(=O)N[C@H]1Cc2ccccc2[C@H]2CCC[C@@H](C(=O)O)N2C1=O)C(C)C              No
4              O=C1c2c(O)cccc2Cc2cccc(O)c21              No
5          N[C@@H](Cc1c[nH]c2ccccc12)C(=O)O              No
6                                   CC(=O)O              No
7  OCC(CO)n1cnc(-c2ccc(F)cc2)c1-c1ccnc(Oc2ccccc2)n1              No
8                                NCCOCCOCCN              No
9  CC(C)OC(=O)C(C)(C)Oc1ccc(C(=O)c2ccc(Cl)cc2)cc1              No

Asked: Give the logged outcome of this assay for the following molecule: CSc1ccc(Oc2ccc(S(N)(=O)=O)cc2CN(C)C)cc1C
Given back: No

Asked: Give the logged outcome of this assay for the following molecule: CC(=O)OCC(COC(C)=O)OC(C)=O
Given back: No

Asked: Give the logged outcome of this assay for the following molecule: CN(C)C(=O)NC1(c2ccccc2)CCN(CC[C@@]2(c3ccc(F)c(F)c3)CN(C(=O)c3ccccc3)CCO2)CC1
Given back: No

Asked: Give the logged outcome of this assay for the following molecule: Nc1nc(Cl)nc2c1ncn2[C@H]1C[C@H](O)[C@@H](CO)O1
Given back: Yes

Asked: Give the logged outcome of this assay for the following molecule: O=C(O)CN(CC(=O)O)CC(=O)O
Given back: No

Asked: Give the logged outcome of this assay for the following molecule: CCCCC(CC)COP(=O)(OCC(CC)CCCC)OCC(CC)CCCC (configuration not stated)
Given back: No

Asked: Give the logged outcome of this assay for the following molecule: O=C(O)c1[nH]n(-c2ccc(S(=O)(=O)O)cc2)c(=O)c1N=Nc1ccc(S(=O)(=O)O)cc1
Given back: No

----------
- Read-out: Cellular tumor antigen p53 (Homo sapiens)
- MEASUREMENT_PROTOCOL: LTEA_HepaRG_TP53: Life Technologies and Expression Analysis (LTEA) Assay for Tumor Protein P53 (TP53) using HepaRG (AID 2283537)
- RUN_PARAMETERS: mRNA level, 48 h; actives raise or lower the signal
Active and inactive are the calls of the source. The calls were made as follows: active = hit-call score of the fitted dose curve at least 0.9, where 1 is the maximum; inactive = score below 0.9.
// one of active, inactive, no free text

Use these answered entries as a reference point.
In [3]: df
Out[3]:
                                   molecule  assigned_label
0  COc1ccc(C(=O)Nc2nc3ccccc3c(NCc3ccccc3)c2C#N)cc1        inactive
1  COC(=O)[C@H]1[C@H]2C[C@@H]3c4[nH]c5cc(OC)ccc5c4CCN3C[C@H]2C[C@@H](OC(=O)c2cc(OC)c(OC)c(OC)c2)[C@@H]1OC        inactive
2            O=C1O[C@H]([C@H](O)CO)C(O)=C1O        inactive
3  CC(C)(O)c1ccc(CNC(=O)c2cccnc2Oc2ccc(F)cc2)cc1        inactive
4  Nc1nc(Cl)nc2c1ncn2[C@H]1C[C@H](O)[C@@H](CO)O1        inactive
5  CCCCC(CC)COC(=O)CCCCCCCC(=O)OCC(CC)CCCC (stereo not drawn)        inactive

Asked: Give the logged outcome of this assay for the following molecule: COC(=O)CCCC(=O)OC
Given back: inactive

Asked: Give the logged outcome of this assay for the following molecule: CCC(C)N(C)C(=O)c1cc2ccccc2c(-c2ccccc2Cl)n1 (stereo not drawn)
Given back: inactive

Asked: Give the logged outcome of this assay for the following molecule: CCCCc1nc2cccnc2n1Cc1ccc(-c2ccccc2-c2nnn[nH]2)cc1
Given back: inactive

Asked: Give the logged outcome of this assay for the following molecule: O=C(O)CN(CC(=O)O)CC(=O)O
Given back: inactive

----------
- MEASUREMENT_PROTOCOL: Tanguay_ZF_120hpf_TRUN_legacy: (Legacy) Oregon State University Tanguay Lab 120 Hour Post-fertilization zebrafish Assay for Truncated Body (AID 2283655)
Records with an inconclusive call do not appear. Calls of active or inactive are those of the source. Rule for the calls: active = hit-call score of the fitted dose curve at least 0.9, where 1 is the maximum; inconclusive = response in the unintended direction; inactive = score below 0.9.
MEASURE: outcome

                                   compound  measure  measured_result
0                                NCCOCCOCCN  outcome         inactive
1                                  O=[Si]=O  outcome         inactive
2  CCc1cc(C2=C(C(=O)O)N(c3ccccc3C(F)(F)F)S(=O)(=O)c3ccccc32)cc2c1OCO2  outcome         inactive
3                              Oc1ccc(O)cc1  outcome         inactive
4    O=C(Oc1ccccc1)c1cccc(C(=O)Oc2ccccc2)c1  outcome         inactive

Go through the items and report each one's outcome.
1. O=C(O)CC(O)(CC(=O)O)C(=O)O
2. CO[C@@H]1COCC[C@@H]1N[C@@H]1CC[C@@](C(=O)N2CCc3ncc(C(F)(F)F)cc3C2)(C(C)C)C1
3. Cc1c(C)c2c(c(C)c1O)CCC(C)(COc1ccc(CC3SC(=O)NC3=O)cc1)O2 (stereo not drawn)

Given back:
inactive
inactive
inactive

----------
- MEASUREMENT_PROTOCOL: APR_HepG2_MicrotubuleCSK_72hr: Apredica 72-hour HepG2 Assay for Microtubule CSK Stabilty (AID 2282919)
- RUN_PARAMETERS: HepG2 microtubule cytoskeleton, high-content imaging, actives raise or lower the signal
Calls of active or inactive are those of the source. The calls were made as follows: active = hit-call score of the fitted dose curve at least 0.9, where 1 is the maximum; inactive = score below 0.9.
// one of class 1 for active, class 0 for inactive, no free text

Use these answered entries as a reference point.
>>> print(df.to_string())
                                   molecule  assigned_label
0                            Cc1occc(=O)c1O         class 0
1                        C/C=C/c1ccc(OC)cc1         class 0
2                  CCCCOC(=O)CCCCC(=O)OCCCC         class 0
3                             c1ccc2occc2c1         class 0
4  CN(C)C(=O)NC1(c2ccccc2)CCN(CCC[C@]2(c3ccc(Cl)c(Cl)c3)CCCN(C(=O)c3ccccc3)C2)CC1         class 0

Asked: Give the logged outcome of this assay for the following molecule: CC(N)=O
Given back: class 0

Asked: Give the logged outcome of this assay for the following molecule: C=CCc1ccc(OC)c(OC)c1
Given back: class 0

Asked: Give the logged outcome of this assay for the following molecule: CCCCC(CC)COP(=O)(OCC(CC)CCCC)OCC(CC)CCCC (stereo unspecified)
Given back: class 1

Asked: Give the logged outcome of this assay for the following molecule: CCCCCCCCCCCCCCCCO
Given back: class 0

Asked: Give the logged outcome of this assay for the following molecule: CCc1nc(N)nc(N)c1-c1ccc(Cl)cc1
Given back: class 0

Asked: Give the logged outcome of this assay for the following molecule: Cc1ccc(-c2cc(C(F)(F)F)nn2-c2ccc(S(N)(=O)=O)cc2)cc1
Given back: class 0

----------
- MEASUREMENT_PROTOCOL: APR_HepG2_p53Act_24hr: Apredica 24-hour HepG2 Assay for p53 Activation (AID 2282913);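 note: p53 protein immunofluorescence averaged per cell in HepG2 with Hoechst nuclei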
- RUN_PARAMETERS: high-content imaging, actives raise or lower the signal
- Experimental: APR_HepG2_24hr is a cell-based, multiplexed-readout assay that uses HepG2, a human liver cell line, with measurements taken at 24 hours after chemical dosing in a 384-well plate.APR_HepG2_p53Act_24hr is one of 10 assay component(s) measured or calculated from the APR_HepG2_24hr assay. […] This assay endpoint, APR_HepG2_p53Act_24hr, was analyzed with bidirectional fitting relative to DMSO as the negative control and baseline of activity. […]
The source made the active and inactive calls. How the source made its calls: active means hit-call score of the fitted dose curve at least 0.9, where 1 is the maximum; inactive means score below 0.9.
// one of T (active), F (inactive), no free text

>>> df
                    structure_smiles_string  assigned_label
0  CO[C@@H]1COCC[C@@H]1N[C@@H]1CC[C@@](C(=O)N2CCc3ncc(C(F)(F)F)cc3C2)(C(C)C)C1               F
1                    Cc1ccc(C(C)(C)C)c(O)c1               T

We now examine a further compound.
Asked: Give the logged outcome of this assay for the following compound: CC(C)c1cccc(C(C)C)c1NC(=O)NS(=O)(=O)c1cc(C(C)(C)O)co1
Given back: F
